test system: UACC-62 melanoma; experiment: NCI tumour cell line growth inhibition, 48 h
Quick list: TGI per entry.

Completed entries (count: 10):
1. Cc1ccc2nc(Nc3ccccc3C)c(Nc3ccccc3C)nc2c1 : > 90.7 µM
2. OCCN(CCO)c1ncnc2c1sc(=S)n2-c1ccccc1 : > 100 µM
3. O=C1[C@H]2ON(c3ccccc3)C(c3cccc([N+](=O)[O-])c3)[C@H]2C(=O)N1c1ccc(Cc2ccc(N3C(=O)[C@@H]4ON(c5ccccc5)C(c5cccc([N+](=O)[O-])c5)[C@@H]4C3=O)cc2)cc1 (stereo not given in full) : > 100 µM
4. C(/C=C/N1CCCC1)=C\c1nc(N2CCCC2)c2ccccc2n1 : 44.1 µM
5. COc1ccc(-c2nc(/C=N/Nc3cc(C)nc4ccc(Br)cc34)c(C)o2)cc1 : 3.34 µM
6. Oc1ccc(C[C@@H]2CN[C@H](Cc3ccc(O)c(Br)c3)CN2)cc1 : > 100 µM
7. Fc1ccc(-c2cc(-c3cn[nH]c3-c3ccccn3)ccn2)cc1 : > 25 µM
8. CCOP(=O)(CC1OC(CO)C(O)C1O)OCC (stereo not given) : > 100 µM
9. CN(C)CN1C(=O)/C(=N\n2c(-c3ccncc3)n[nH]c2=S)c2ccccc21 : > 100 µM
10. COc1ccc2c(c1)c(-c1cc(-c3cn(C)c4ccc(OC)cc34)[nH]n1)cn2C : > 100 µM

Which TGI is reported for this compound? `C=CCN(N=O)C(=O)ON1C(=O)CCC1=O`
> 100 µM

Using the record for `NCCn1c2c(c3ccccc3c1=O)C(=O)c1ccccc1-2` , report its TGI.
5.69 µM

Could you share which TGI value was measured for CCC(C)C(NC(=O)C(CCCC[N+](=N)N)NC(=O)C(CCCC[N+](=N)N)NC(=O)c1ccc(OC)cc1)C(=O)NC(CCCC[N+](=N)N)C(=O)N1CCCC1C(=O)NC(CCCCN)C(=O)NC(CC(C)C)C(N)=O (stereo not given) ?
> 100 µM

Quick one: TGI of `CC(=O)Nc1ccc2c(c1)CN1C(=O)c3ccccc3C1=N2` ?
> 100 µM

Which TGI is reported for this compound? `CC(C)NC(=O)OCc1c(COC(=O)NC(C)C)n(C)c2c1ccc1cc(Cl)c(Cl)cc12`
28 µM

* * *

tested on: SK-MEL-28 melanoma; assay: NCI tumour cell line growth inhibition, 48 h
As shown below, each of these compounds has a reported TGI value.

Use the examples below as a reference point.
1. C[C@@](Br)(C(=O)O)[C@H](Br)C(=O)O : > 100 µM
2. CCn1c(-c2nonc2N)nc2c(C#CC(C)(C)O)ncc(OC[C@@H]3CCCN3)c21 : > 25 µM

For the next question, use this compound.
Fill blank: measured TGI of the compound `Cc1nnc(N=Nc2c(O)[nH]c3ccccc23)[nH]c1=O` is ____.
> 100 µM

* * *

tested on: SW-620 colon; experiment: NCI tumour cell line growth inhibition, 48 h
# TGI per record follows

Check out these entries, answers already filled in.
1. COc1ccc2c(c1)c(-c1cc(-c3cn(C)c4ccc(OC)cc34)[nH]n1)cn2C : > 100 µM
2. Cc1cc([C@H](C)Nc2nccc(N3C(=O)OC[C@@H]3[C@H](C)F)n2)ncc1-c1ccnc(C(F)(F)F)c1 : > 100 µM
3. O=c1ccn([C@@H]2C=C(CO)[C@@H](O)[C@H]2O)c(=O)[nH]1 : > 625 µM
4. CC12O[Te]34OC1(C)C(C)(O3)C2(C)O4 : 32.6 µM
5. COc1ccc(CNC(=O)c2ccc(-c3cc(-c4nnc(C)o4)ccc3C)cc2)cc1 : > 25 µM
6. CCCCOP1(=O)C=CC(Cl)=C(C)C1 (configuration not stated) : 42.7 µM

Query: TGI; subject: `O=C1CCCC2=C1CC1=C(CCCC1=O)N2c1ccc(-c2ccccc2)cc1`
> 100 µM

Can you share its TGI? I mean this compound: `COc1ccccc1Cn1c2c(c3cc(O)ccc31)C(=O)c1ccccc1C2=O`
> 100 µM

What does the record list as TGI for `COC(=O)Cc1cc(=O)oc2c1C(=O)CCC2` ?
> 100 µM
